# testedSystem: Estrogen receptor (Bos taurus) (UniProt Q9XSB5+P49884)
# experimentalContext: Uterus; Cytosol
I'd appreciate it if you could supply RBA1 values for the items below.
One number for each entry.

molecularstring=COc1ccc(/C(=C(\C#N)c2ccccc2)c2ccc(O)cc2)cc1 measuredresult=6.1
molecularstring=CCN(CC)CCOc1ccc(C(=C(C#N)c2ccccc2)c2ccc(OCCN(CC)CC)cc2)cc1 measuredresult=0.42
molecularstring=Cc1ccc(C(C#N)=C(c2ccc(O)cc2)c2ccc(O)cc2)cc1 measuredresult=49
molecularstring=CN(C)Cc1cc(C(=C(C#N)c2ccccc2)c2ccc(O)c(CN(C)C)c2)ccc1O measuredresult=0.3

Each molecule below has a reported value. Please supply its RBA1.
1. COc1ccc(/C(=C(/C#N)c2ccccc2)c2ccc(O)cc2)cc1
2. Cc1ccc(/C(=C(\C#N)c2ccc(O)cc2)c2ccc(O)cc2)cc1

25
28

Report RBA1 for each item below.
1. N#C/C(=C(\c1ccccc1)c1ccc(O)cc1)c1ccc(O)cc1
2. COc1ccc(C(=C(C#N)c2ccccc2)c2ccc(OC)cc2)cc1

[19, 0.17]

I'm hoping you can list RBA1 for every molecule here, please.
1. N#CC(=C(c1ccc(O)cc1)c1ccc(O)cc1)c1ccccc1
2. CCN(CC)CCOc1ccc(C(C#N)=C(c2ccccc2)c2ccccc2)cc1
3. Cc1ccc(/C(=C(/C#N)c2ccccc2)c2ccc(O)cc2)cc1
4. N#C/C(=C(\c1ccccc1)c1ccc(O)cc1)c1ccccc1

28
0.17
29
3.7

====

Exercise: for every item that follows, state its recorded IC30.
# System: MCF7
# testProtocol: Inhibitory activity against proliferation of MCF-7 cells in presence of 10e-6 M concentration of [3H]- estradiol (E2)
# Assay type: functional
# experimentalContext: Homo sapiens

These recorded examples may help you get a feel for the data.
molecularstring=Cc1ccc(/C(=C(\C#N)c2ccccc2)c2ccc(O)cc2)cc1 readouttype=IC30 measuredresult="5.8 µM"
molecularstring=Cc1ccc(/C(=C(/C#N)c2ccc(O)cc2)c2ccc(O)cc2)cc1 readouttype=IC30 measuredresult="10 µM"
molecularstring=CN(C)Cc1cc(C(=C(C#N)c2ccccc2)c2ccc(O)c(CN(C)C)c2)ccc1O readouttype=IC30 measuredresult="8.5 µM"

API: the following record is the query input.
Give a short answer stating reported IC30 for "CC/C(=C(/c1ccccc1)c1ccc(OCCN(C)C)cc1)c1ccccc1" .
4.3 µM

====

# Tested on: MCF7
# testProtocol: Effective dose for [3H]- estradiol against proliferation of MCF-7 cells
# Assay type: functional, cell-based
# experimentalContext: Homo sapiens
For each entry below, report its EC50 value.
Numbers only, in nM.

molecularstring=CN(C)Cc1cc(/C(=C(\C#N)c2ccccc2)c2ccc(O)cc2)ccc1O testedsystem=MCF7 unitofmeasurement=nM measuredresult=14

Provide the reported EC50 of each entry below, same order.
1. CC(C)Oc1ccc(/C(=C(\C#N)c2ccccc2)c2ccc(O)cc2)cc1
2. COc1ccc(C(=C(C#N)c2ccccc2)c2ccc(OC)cc2)cc1
3. Cc1ccc(/C(=C(/C#N)c2ccccc2)c2ccc(O)cc2)cc1
4. N#CC(=C(c1ccccc1)c1ccccc1)c1ccc(O)cc1
5. N#C/C(=C(/c1ccccc1)c1ccc(O)cc1)c1ccc(O)cc1

1: 0.12; 2: 102; 3: 0.28; 4: 0.55; 5: 0.063

====

# System: MCF7
# testProtocol: Effective dose for [3H]- estradiol against proliferation of MCF-7 cells
# Format: functional, cell-based
# experimentalContext: Homo sapiens
readoutType: pEC50
Give bare numbers, as −log10 of the molar value.

molecularstring=Oc1ccc(C(=C2CCCCC2)c2ccc(O)cc2)cc1 testedsystem=MCF7 measuredresult=8.35
molecularstring=CN(C)Cc1cc(C(=C(C#N)c2ccccc2)c2ccc(O)c(CN(C)C)c2)ccc1O testedsystem=MCF7 measuredresult=7.36
molecularstring=CCN(CC)CCOc1ccc(/C(=C(/C#N)c2ccccc2)c2ccc(O)cc2)cc1 testedsystem=MCF7 measuredresult=10.70
molecularstring=N#C/C(=C(/c1ccccc1)c1ccc(O)cc1)c1ccccc1 testedsystem=MCF7 measuredresult=9.72
molecularstring=CN(C)c1ccc(C(=C(C#N)c2ccccc2)c2ccc(N(C)C)cc2)cc1 testedsystem=MCF7 measuredresult=7.92

Dear reader, for each entry below, please note its pEC50.
1. Cc1ccc(C(C#N)=C(c2ccc(O)cc2)c2ccc(O)cc2)cc1
2. COc1ccc(/C(=C(\C#N)c2ccccc2)c2ccc(O)cc2)cc1

1. 9.85
2. 9.70
